- targetUnderTest: MycN protein (Homo sapiens, UniProt P04198)
- Construct: either 2×10^6 of L-363 (human leukemia cell line) or SKNBE2 (neuroblastoma cell line) cells; endogenous in cells; host or cells: SKNBE2 / SK-N-BE(2) neuroblastoma cells
- Sequence (P04198 1-464): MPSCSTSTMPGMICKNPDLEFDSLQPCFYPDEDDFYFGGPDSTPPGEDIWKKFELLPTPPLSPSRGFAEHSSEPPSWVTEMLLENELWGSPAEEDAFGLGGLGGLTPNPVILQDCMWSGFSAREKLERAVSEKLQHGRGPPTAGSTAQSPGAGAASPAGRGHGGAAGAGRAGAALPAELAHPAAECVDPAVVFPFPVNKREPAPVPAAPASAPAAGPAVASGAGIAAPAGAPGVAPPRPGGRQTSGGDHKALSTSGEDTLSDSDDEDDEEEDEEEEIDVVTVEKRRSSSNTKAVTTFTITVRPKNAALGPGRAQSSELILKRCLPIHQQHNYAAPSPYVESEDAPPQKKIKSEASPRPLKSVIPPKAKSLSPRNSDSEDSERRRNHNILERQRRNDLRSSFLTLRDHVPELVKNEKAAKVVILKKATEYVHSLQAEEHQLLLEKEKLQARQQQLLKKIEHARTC
- assayProtocol: Degradation of MycN protein, Western blot, SKNBE2 cells (Example 160)
- Format: cell-based
- conditionsUsed: SKNBE2, 6 h
measuredQuantity: inhibition at 2 µM

Example compounds with recorded inhibition at 2 µM:
{"compound": "CN(c1nccc(Nc2cc(C3CC3)[nH]n2)n1)[C@H]1CC[C@H](NC(=O)Cc2cccc(C(F)(F)F)c2)CC1 [Compound 104]", "result": "20 to 49%"}
{"compound": "CN(c1nccc(Nc2cc(C3CCCC3)[nH]n2)n1)[C@H]1CC[C@H](NC(=O)C2Cc3ccccc3C2)CC1 [Compound 105]", "result": "50 to 79%"}
{"compound": "CN(c1nccc(Nc2cc(C3CC3)[nH]n2)n1)[C@H]1CC[C@H](NC(=O)c2cn(C3COC3)nn2)CC1 [Compound 149]", "result": "80 to 100%"}
{"compound": "CN(c1nccc(Nc2cc(C3CC3)[nH]n2)n1)C1CCN(CC(=O)Nc2cn(C)nn2)CC1 [Compound 8]", "result": "50 to 79%"}

Hello, I would appreciate it if you could give inhibition at 2 µM for each entry below.
1. Cn1ncc2cc(C(=O)N[C@H]3CC[C@H](N(C)c4nccc(Nc5cc(C6CC6)[nH]n5)n4)CC3)ccc21 [Compound 118]
2. Cn1nnc(C(=O)N[C@H]2CC[C@H](N(C)c3nccc(Nc4cc(C5CCCC5)[nH]n4)n3)CC2)n1 [Compound 145]
3. CN(c1cc(C2CC2)[nH]n1)c1ccnc(N(C)C2CCN(CC(=O)Nc3cccc(C(F)(F)F)c3)CC2)n1 [Compound 4]

-- reply
50 to 79%
50 to 79%
< 20%
